Tested on: Wolbachia pipientis
method notes: Anti-Wolbachia Cell-Based Screen
Assay type: functional
Parameters: scale not given: in the data most compounds retested in dose-response had high values
condition context: 5 µM
Among all 48,000 compounds or so, about 13,000 (27%) showed an effect of 50% or more. The list shows a part of the results.
Field: Percent Effect. Provide a value for each of the compounds that follow.
Answers are plain numbers, in %.

Use these answered entries as a reference point.
# compound, readout kind, measurement
measured = [
    ("CCC(=O)N1CCC(c2nc3ccc(NC(C)C)cn3n2)CC1", "Percent Effect", -7.587),
    ("CCCN1CCN(Cc2cccc(OC(C)C)c2)[C@H]2CS(=O)(=O)C[C@H]21", "Percent Effect", -22.43),
]

Quick one: give me Percent Effect for each item below, same order please.
1. CC(C)N(C)C(=O)CN1CCCC(c2ccc(C(=O)O)cc2)C1 (centres undefined)
2. CC(C)N(C)Cc1ncn2c1CN(C(=O)C1CCCO1)CCC2 (centres undefined)
3. CCN(C(=O)CN1CCC(c2n[nH]c(C3CC3)n2)CC1)C1CC1
4. CC(C)Oc1ccccc1CNC(=O)N(C)CC(F)F
5. CN(CC(=O)Nc1ccncc1)CC1CCCN1c1cccnn1 (centres undefined)
6. CN(Cc1cnn(C)c1)CC1CCCN1c1cccnn1 (centres undefined)

Result string:
0.2821
102
20.34
-6.331
2.636
108.8

Quick one: give me Percent Effect for each item below, same order please.
1. CC(=O)N1CCN(C(=O)CNc2cccc(OC(F)F)c2C)CC1
2. FC(F)(F)CCc1ccnc(N2CCN(Cc3ccncc3)CC2)n1
3. Cc1nnn2c1COCC(CNC(=O)c1ccnnc1)C2 (centres undefined)
4. Cc1n[nH]cc1CNC1(Cc2ccc(Br)cc2)CCCCC1
5. CCN(CC(F)(F)F)C(=O)C1CCCN(Cc2nc(C)c(C)o2)C1 (centres undefined)
6. COc1ccc(Cl)cc1NCC(=O)N(Cc1cccnc1)C1CC1
7. COc1ccc(CCC(=O)NC2CCC(O)CC2)cc1OC (centres undefined)

Result string:
1. -4.859
2. -2.758
3. -2.264
4. 13.31
5. -1.409
6. 0.4709
7. -0.04658

Quick one: give me Percent Effect for each item below, same order please.
1. CC(=O)c1cc(CN2C[C@@H](NS(=O)(=O)N(C)C)[C@H](C(C)C)C2)cs1
2. CN(CCc1ccncc1)CC1CCCN1c1cccnn1 (centres undefined)
3. CN(Cc1cccnc1)CC1CCCN1c1cccnn1 (centres undefined)

Result string:
[-2.035, 116.4, -2.765]

Quick one: give me Percent Effect for each item below, same order please.
1. CCN(CC)C(=O)CN1CCCC(c2nc(C)c3c(n2)N(C)CCC3)C1 (centres undefined)
2. COCc1nc(C(=O)NS(=O)(=O)c2ccc(C)cc2C)cs1
3. C=C(C)CNc1nc(CS(=O)(=O)c2ccccc2)cs1
4. CCC(=O)N1CCC(c2nc(C)c3c(n2)N(C)CCC3)CC1
5. CCN(CC)C(=O)CN1CCC(c2nc(C)c3c(n2)N(C)CCC3)CC1

Result string:
160
-13.89
-10.96
112.7
126.4

Query string: Indicate its recorded Percent Effect; the compound in question is CC(C)N(C)Cc1ncn2c1CN(CC(=O)N(C)C)CCC2
Result string: -4.555
